B1: KIAA1161 (parent)
chain: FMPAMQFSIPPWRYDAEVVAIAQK

Variants of: B1
Experiment: protein stability index of a GFP-peptide fusion (GPS, HEK-293T) (PSI 1-6); higher = more stable;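 note: lentivirally expressed fusions sorted by FACS into six bins by GFP to DsRed ratio, PSI derived from sequencing read proportions per bin multiplied by bin number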
Conditions: c terminus: a fixed tail appended
assay endpoint: protein stability index
Answers are plain numbers.

Here's what some known entries look like.
>>> recorded_number("I9Y")
2.83
>>> recorded_number("R13E")
2.48
>>> recorded_number("P3C")
2.02
>>> recorded_number("A4D")
3.44
>>> recorded_number("W12Y")
1.99
>>> recorded_number("M5C")
2.11

Required: protein stability index, one value per variant below.
1. S8A
2. V18N
3. E17G
4. Y14C
5. V19F

[1.69, 2.23, 1.72, 1.67, 2.48]

Required: protein stability index, one value per variant below.
1. Q23F
2. V18R
3. Y14I

1. 1.35
2. 3.34
3. 1.05

Required: protein stability index, one value per variant below.
1. W12K
2. D15P
3. M2K
4. F7K
5. Y14G

2.17
1.17
2.38
1.7
1.93

Required: protein stability index, one value per variant below.
1. I9R
2. D15E
3. S8Q

1.6
2.5
2.11
